ASSAY INFO: Solubility of the substrates in aqueous solution / buffer
Type: physicochemical
PARTICULARS: aqueous solution; aqueous solutions, without ethanol; read-out: solubility in aqueous solutions
# solubility per record follows
OBSERVATION TYPE: solubility

Cc1cc(=O)oc2cc(NC(=O)Cc3ccccc3)ccc12 [PMC]
< 1 µg/mL
O=C(Cc1ccccc1)Nc1ccc2c(C(F)(F)F)cc(=O)oc2c1 [PFC]
< 1 µg/mL

Origin of measurements: patent US4777269A
